The reported measurements were obtained from patent US11685719B2.

molecular target: p38a/MK2 (Homo sapiens (Human), UniProt P49137+Q16539); assay: biochemical; settings: 10-point 1:3 dilution, top dose 1 μM; 10 μM ATP, 2 h incubation; read-out: p38a/MK2 (1 μM) Enzyme pIC50 (converted)
Sequence (Q16539 whole entry): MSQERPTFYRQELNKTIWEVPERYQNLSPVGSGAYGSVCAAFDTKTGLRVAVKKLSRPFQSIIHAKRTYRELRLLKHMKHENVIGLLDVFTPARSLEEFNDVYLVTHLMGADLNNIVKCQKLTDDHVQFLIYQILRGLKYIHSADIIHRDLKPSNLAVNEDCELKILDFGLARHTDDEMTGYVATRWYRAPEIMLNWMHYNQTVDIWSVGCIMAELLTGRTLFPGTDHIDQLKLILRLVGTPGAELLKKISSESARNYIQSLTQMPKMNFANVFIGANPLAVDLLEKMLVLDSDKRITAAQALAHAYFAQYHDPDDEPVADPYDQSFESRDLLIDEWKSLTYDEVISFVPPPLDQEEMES
Sequence (P49137 46-400): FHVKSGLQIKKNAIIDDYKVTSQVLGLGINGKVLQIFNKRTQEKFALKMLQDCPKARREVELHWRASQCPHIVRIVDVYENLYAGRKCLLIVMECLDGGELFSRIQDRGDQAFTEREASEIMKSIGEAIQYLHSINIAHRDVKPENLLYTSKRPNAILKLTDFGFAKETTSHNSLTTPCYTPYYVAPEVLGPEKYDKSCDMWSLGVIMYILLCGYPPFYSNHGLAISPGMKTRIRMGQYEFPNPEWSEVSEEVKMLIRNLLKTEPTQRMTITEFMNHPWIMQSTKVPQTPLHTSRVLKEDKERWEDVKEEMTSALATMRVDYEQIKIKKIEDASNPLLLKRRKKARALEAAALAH
parameter: IC50

Known results for compounds:
compound	result
[2H]C([2H])(Oc1cc(C)n(-c2cc(-n3ccnc(C(C)(C)O)c3=O)ncc2C)c(=O)c1Cl)c1ncc(F)cc1Cl (single isomer, unassigned) [Example 22A]	0.002 µM
Cc1cnc(-n2nccc(C(C)(C)O)c2=O)cc1-n1c(C)cc(OCc2ncc(F)cc2F)c(Cl)c1=O (single isomer, unassigned) [Example 9B]	> 1 µM

Next, consider the following compound.
Q: Recorded IC50 of Cc1cnc(-n2cccc([C@@](C)(O)C3CC3)c2=O)cc1-n1c(C)cc(OCc2ncc(F)cc2F)c(Cl)c1=O (single isomer, unassigned) [Example 14D] , please.
A: > 1 µM
